System: KRAS^G12C-NSCLC H358 cell line
Test Protocol: Ex vivo Edu proliferation test (MI, GI %), H358
Format: cell-based
Settings: Table 2a; 7 days; uM: osimertinib 0.5, afatinib 0.2, cobimetinib 0.4, trametinib 0.02, palbociclib 0.15, ribociclib 5
Measured Endpoint: GI % (Growth Inhibition Rate), H358 (%)
Report the value in % with no unit label.

Reference set, count: 5
Smiles Data	Tgt	GI % (Growth Inhibition Rate), H358, %
O=C(c1ccc(F)c(F)c1Nc1ccc(I)cc1F)N1CC(O)([C@@H]2CCCCN2)C1	KRAS^G12C-NSCLC H358 cell line	97.48
CC(=O)c1c(C)c2cnc(Nc3ccc(N4CCNCC4)cn3)nc2n(C2CCCC2)c1=O	KRAS^G12C-NSCLC H358 cell line	60.31
CN(C)C(=O)c1cc2cnc(Nc3ccc(N4CCNCC4)cn3)nc2n1C1CCCC1	KRAS^G12C-NSCLC H358 cell line	95.43
CN(C)C/C=C/C(=O)Nc1cc2c(Nc3ccc(F)c(Cl)c3)ncnc2cc1O[C@H]1CCOC1	KRAS^G12C-NSCLC H358 cell line	22.84
CC(=O)Nc1cccc(-n2c(=O)n(C3CC3)c(=O)c3c(Nc4ccc(I)cc4F)n(C)c(=O)c(C)c32)c1	KRAS^G12C-NSCLC H358 cell line	20.76

Okay, now this molecule:
Asked: Report GI % (Growth Inhibition Rate), H358 for `C=CC(=O)Nc1cc(Nc2nccc(-c3cn(C)c4ccccc34)n2)c(OC)cc1N(C)CCN(C)C` please.
Given back: 22.86
